# Test system: NFKB
# method.summary: siRNA transfection array, NFkB EGFP reporter, HepG2 cells
# Format: cell-based, human
# run.conditions: NFKB reporter, 48 h culture
endpoint.name: Relative intensity ratio of EGFP fluorescence against Scramble II Duplex, NFKB
Field note: include the unit after the figure.

As a guide, the following entries are already answered.
>>> reported_result("NFAT3 siRNA: siRNA SEQ ID NO: 63 (Dharmacon), targets human NF-AT3 L41066 (GCCACUGACCCUACAGAUG; chemistry not given here)")
"109.9%"
>>> reported_result("NFkB siRNA: siRNA SEQ ID NO: 64 (Dharmacon), targets human p50-NF-kappa B homolog S76638 (GCCUAAGCAGAGAGGCUUC; chemistry not given here)")
"54.6%"
>>> reported_result("TR siRNA: siRNA SEQ ID NO: 75 (Dharmacon), targets human thyroid hormone receptor Y00479 (CCUCCAUCCCACCUAUUCC; chemistry not given here)")
"87.9%"

substance c-Jun siRNA: siRNA SEQ ID NO: 54 (Dharmacon), targets human c-jun J04111 (GGUGGCACAGCUUAAACAG; chemistry not given here) , Relative intensity ratio of EGFP fluorescence against Scramble II Duplex, NFKB observed: 71.3%

According to the records, this substance HSF-1 siRNA: siRNA SEQ ID NO: 59 (Dharmacon), targets human HSF1 NM_005526 (GGAGUGCAUGGACUCCAAG; chemistry not given here) displays Relative intensity ratio of EGFP fluorescence against Scramble II Duplex, NFKB of 95.0%
